test system: HT-29; assay: NCI tumour cell line growth inhibition, 48 h
Active and inactive are the calls of the source. No stated cut-off is given here; in the data, active = GI50 up to about 1.1 µM and inactive = higher.
Hi there, I'd appreciate the recorded GI50 for every entry that follows.

Recorded GI50, per entry:
Cc1ccc(C2(O)c3ccccc3C(=O)N(C)C2(O)c2ccc(C)cc2)cc1 (stereo not given) :: 46.8 µM (inactive)
NCc1ccc(C(=O)O)cc1 :: > 100 µM (inactive)
N#Cc1c(-c2ccc(Cl)cc2)c(C#N)c(=O)n(NS(=O)(=O)c2ccccc2)c1O :: 34.8 µM (inactive)
COc1cc(CNc2ccc3nc4n(c(=O)c3c2)CCCCC4)cc(OC)c1OC :: 81.7 µM (inactive)

Below: the item to evaluate.
Please report the recorded GI50 for O=C(/C=C/c1ccc(OCCSCCCCCCCCCCSCCOc2ccc(/C=C/C(=O)c3ccc(Cl)cc3)cc2)cc1)c1ccc(Cl)cc1 .
> 100 µM (inactive)

* * *

tested on: 786-0; assay: NCI tumour cell line growth inhibition, 48 h
The source made the active and inactive calls. Cut-off read from the data, not from the text of the source: active = GI50 up to about 1.1 µM and inactive = higher.
value-type: GI50

Solved entries (count: 6):
O=c1ccc2ccc(OP(=O)(O)O)cc2o1 :: > 100 µM (inactive)
Cc1n2nc(N)sc2n[n+]1Cc1ccccc1 :: > 100 µM (inactive)
CCN1CC2=C(OC(N)=C(C#N)C2c2ccc(Cl)cc2)/C(=C/c2ccc(Cl)cc2)C1 (configuration not stated) :: 12.1 µM (inactive)
Cc1cc(/N=C/c2c(CO)cnc(C)c2O)c(/N=C/c2c(CO)cnc(C)c2O)cc1C.[Zn+2] :: > 100 µM (inactive)
O=c1c2c(oc3ccccc13)-c1ccccc1OC2 :: 24.4 µM (inactive)
CC1(CO)OC(n2cnc3c(N)ncnc32)C(O)C1O (configuration not stated) :: > 100 µM (inactive)

Report GI50 for every entry below.
1. O=C1C(Br)=C(Br)C(=O)c2ccc(=O)ccc21
2. O=C1C2c3[nH]c4ccccc4c3[C@@H]3CCCCC3C2C(=O)N1c1ccccc1 (some centres not stated)
3. Cc1c(Cl)cc(C(C)(C)C)c(O)c1Cc1c(C)c(Cl)cc(C(C)(C)C)c1O

["18.3 µM (inactive)", "18.9 µM (inactive)", "1.73 µM (inactive)"]

Please give GI50, item by item, for the list that follows.
1. CC1COS(=O)O1 (configuration not stated)
2. COc1ccc(/C=C/C(=O)c2sc(N)nc2C)cc1
3. N/N=C(\Cc1ccccc1)NN=C(N)N

["> 100 µM (inactive)", "> 100 µM (inactive)", "> 100 µM (inactive)"]

* * *

Please provide measured GI50 for the entries that follow.
tested on: 786-0; experiment: NCI tumour cell line growth inhibition, 48 h
Activity calls are given as the source filed them. Cut-off read from the data, not from the text of the source: active = GI50 up to about 1.1 µM and inactive = higher.

# count of solved cases: 5
COc1ccc(/C=C2\NC(=S)N(/C=C3\C(=O)Oc4ccccc4C3=O)C2=O)cc1OC :: > 100 µM (inactive)
O=c1/c(=C\c2ccccc2)sc2n1C(c1ccccc1)C1(O)CCCCC1N=2 (stereo unspecified) :: > 100 µM (inactive)
COC(=O)C1=CO[C@@H](OC2OC(CO)C(O)C(O)C2O)[C@@H]2[C@H](C)[C@@H](O)[C@@H](O)[C@]12O (stereo partly specified) :: > 100 µM (inactive)
O=C1Oc2ccccc2C(=O)/C1=C\NC(=S)c1ccncc1 :: > 100 µM (inactive)
CC1(C)O/C(=C\c2ccccc2)C(=O)/C(=C/c2ccccc2)O1 :: 37.8 µM (inactive)

Shift focus to the following entry.
Could you tell me which GI50 is on file for O=C1Nc2ccccc2C1S(=O)(=O)c1ccccc1 (stereo unspecified) ?
> 100 µM (inactive)

Hey, just so you know, these numbers are from ChEMBL document CHEMBL1201862.
